Test: Half life in dog at 0.90 mg/kg, iv
Type: ADME, organism-based, Canis lupus familiaris
Parameters: dose 0.9 mg/kg, route intravenous
Conditions: in vivo, 0.9 mg/kg

{"molecular-string": "C[C@H]1CN(c2ccc(C(=O)Nc3ccccc3N)cn2)CCN1C(=O)OCc1ccccc1", "half-life": "5.6 h"}

---

Assay: Plasma concentration in human HCT116 cells xenografted CD1 mouse at 15 mg/kg, ip after 72 hrs
Assay type: ADME, organism-based, HCT-116
Set-up: dose 15 mg/kg, route intraperitoneal

{"molecular-string": "Nc1ccc(-c2cccs2)cc1NC(=O)c1ccc(N2CCC3(CCNC3)CC2)nc1", "concentration at 72 h": "30 nM"}

Source listed as ChEMBL document CHEMBL1152282.
